- experimental-system: human GLP1-R (SNAP-GLP-1R expressed in HEK293 cells) (human) (UniProt P43220)
- Sequence (P43220 24-463): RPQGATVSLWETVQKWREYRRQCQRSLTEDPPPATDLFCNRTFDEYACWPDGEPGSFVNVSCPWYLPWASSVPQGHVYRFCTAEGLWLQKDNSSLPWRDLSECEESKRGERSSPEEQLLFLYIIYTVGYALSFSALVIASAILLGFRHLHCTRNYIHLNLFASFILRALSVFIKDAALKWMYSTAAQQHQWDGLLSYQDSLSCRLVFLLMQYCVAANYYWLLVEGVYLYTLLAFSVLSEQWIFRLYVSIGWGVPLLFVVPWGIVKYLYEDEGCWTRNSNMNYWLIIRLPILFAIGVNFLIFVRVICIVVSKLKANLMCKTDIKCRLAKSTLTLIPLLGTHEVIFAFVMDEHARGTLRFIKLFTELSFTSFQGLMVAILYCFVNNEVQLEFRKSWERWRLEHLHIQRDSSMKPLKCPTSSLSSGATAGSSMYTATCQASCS
- assay-remarks: cell-based or functional assay

| binder | units-label | Internalization % TOP |
| --- | --- | --- |
| YXQGTFTSDFSKXLDKKAQXAFIEYLLAGAPSSGAPPPSEG (synthetic construct; SITE 2: note = 2-Aminoisobutyric Acid; SITE 13: note = alpha-methyl-leucine; SITE 17: note = Lysine is chemically modified through conjugation of the epsilon-amino group of the Lysine side chain with (2-[2-(2-Amino-ethoxy)-ethoxy]-acetyl)-(gamma-Glu)-CO-(CH2) 18-CO2H; SITE 20: n) [Example 24] | % | 71.9 |
| YXQGTFTSDFSKXLDKKAQXAFIEYLLAGGPSSGAPPPSEG (synthetic construct; SITE 2: note = 2-Aminoisobutyric Acid; SITE 13: note = alpha-methyl-leucine; SITE 17: note = Lysine is chemically modified through conjugation of the epsilon-amino group of the Lysine side chain with (2-[2-(2-Amino-ethoxy)-ethoxy]-acetyl)-(gamma-Glu)-CO-(CH2) 18-CO2H; SITE 20: n) [Example 10] | % | 71.9 |
| YXQGTFTSDFSKXLDKKAQXAFIEYLLEGGPSSGAPPPGGS (synthetic construct; SITE 2: note = 2-Aminoisobutyric Acid; SITE 13: note = alpha-methyl-leucine; SITE 17: note = Lysine is chemically modified through conjugation of the epsilon-amino group of the Lysine side chain with (2-[2-(2-Amino-ethoxy)-ethoxy]-acetyl)-(gamma-Glu)-CO-(CH2) 18-CO2H; SITE 20: n) [Example 18] | % | 74.1 |
| YXQGTFTSDFSXXLDKKAQXAFIEYLLEXGPSSGEPPPGEG (synthetic construct; SITE 2: note = 2-Aminoisobutyric Acid; SITE 12: note = L-ornithine; SITE 13: note = alpha-methyl-leucine; SITE 17: note = Lysine is chemically modified through conjugation of the epsilon-amino group of the Lysine side chain with (2-[2-(2-Amino-ethoxy)-ethoxy]-acetyl)2-(gamma-Glu)) [Example 69] | % | 58.2 |
| YXQGTFTSDFSXXLDKKAQXAFIEYLLAGGPSSGEPPPSGS (synthetic construct; SITE 2: note = 2-Aminoisobutyric Acid; SITE 12: note = L-ornithine; SITE 13: note = alpha-methyl-leucine; SITE 17: note = Lysine is chemically modified through conjugation of the epsilon-amino group of the Lysine side chain with (2-[2-(2-Amino-ethoxy)-ethoxy]-acetyl)-(gamma-Glu)) [Example 94] | % | 47.2 |
| YXQGTFTSDFSKXLDKKAQXAFIEYLLEXGPSSGAPPPSSG (synthetic construct; SITE 2: note = 2-Aminoisobutyric Acid; SITE 13: note = alpha-methyl-leucine; SITE 17: note = Lysine is chemically modified through conjugation of the epsilon-amino group of the Lysine side chain with (2-[2-(2-Amino-ethoxy)-ethoxy]-acetyl)-(gamma-Glu)-CO-(CH2) 18-CO2H; SITE 20: n) [Example 44] | % | 65 |
